assay: Restrictive medium S. cerevisiae growth inhibition, OD615, pilot screen of yeast lifespan reduction project, restrictive growth control (AID 706); conditions: OD615, 48 h, at 10 µM, hits give high values;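 note: modified DeaD lifespan yeast strain shifted to restrictive glucose medium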
Each entry gets 0.0 if its growth inhibition stays under -10%, and 1.0 if its growth inhibition is -10% or above.

Answered cases to consult:
line-notation: O=C(Nc1cccc2ccccc12)N1CCN(c2ccc(F)cc2)CC1
qualitative-label: 0.0
//
line-notation: CCOC(=O)NCc1ccc(CNC(=O)OCC)cc1
qualitative-label: 1.0
//
line-notation: COc1ccc2c(=O)c(N3C(=O)c4ccccc4C3=O)c(C)oc2c1
qualitative-label: 1.0
//
line-notation: c1ccc(CN2CCN(c3nc4ccccc4n4cnnc34)CC2)cc1
qualitative-label: 0.0

# input for lookup
Exercise: Could you verify whether the entry "O=C(NC1CCN(Cc2ccccc2)CC1)C1CCN(c2nnc(-n3cccc3)s2)CC1" shows growth inhibition of no less than -10%?
Solution: 1.0

----------
Please respond with reported viability for every item in the list.
test: growth suppression of PTEN-deleted HCT116, pilot screen, cell-based, HCT116 clonal line, CellTiter-Glo (AID 824); settings: 60 h, at 10 µM, hits give low values;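 note: 0% = 20 µM Hyamine control and 100% = vehicle cell control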
Results filed as inconclusive are left out.
Answers are plain numbers, in %.

# count of solved cases: 2
molecule: CCOC(=O)N1CCC(NC(=O)CCc2c(C)nc3c(c(C)nn3-c3ccccc3)c2C)CC1
viability (%): 89.5
--
molecule: NC(=O)c1cc(N2C(=O)C3CC=CCC3C2=O)ccc1N1CCCCC1 (centres undefined)
viability (%): 92.4

Provide reported viability for each item, in the same order as listed.
1. CCOC(=O)Cn1c(=O)oc2cc(S(=O)(=O)N3CCCC(C(=O)OCC)C3)ccc21 (centres undefined)
2. CCOc1ccccc1NC(=O)CSc1nnc(-c2ccco2)n1Cc1ccco1

Solution:
1: 90.7; 2: 88.2

----------
experiment: growth suppression of PTEN-deleted HCT116, pilot screen, cell-based, HCT116 clonal line, CellTiter-Glo (AID 824); settings: 60 h, at 10 µM, hits give low values;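 note: 0% = 20 µM Hyamine control and 100% = vehicle cell control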
Results filed as inconclusive are left out.
For each record, write down the corresponding viability.
One number for each entry, in %.

# annotated cases, reported viability shown
line-notation: COc1ccccc1NC(=O)Cn1c(=O)n2nc(C)nc2c2ccccc21
result-unit: %
viability: 90.3
--
line-notation: COc1cc(/C=N/n2cnnc2)ccc1OCCOc1ccccc1
result-unit: %
viability: 91.8
--
line-notation: O=C(NCc1ccco1)c1nnc(Cc2ccc(F)cc2)o1
result-unit: %
viability: 89.5

Now for another entry.
Exercise: // Input: "COC(=O)c1ccc(NC(=O)CNC(=O)C2CCCCC2)cc1" . Output its viability only.
Solution: 88.1

----------
assay: Restrictive medium S. cerevisiae growth inhibition, OD615, pilot screen of yeast lifespan reduction project, restrictive growth control (AID 706); settings: OD615, 48 h, at 10 µM, hits give high values;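 note: modified DeaD lifespan yeast strain shifted to restrictive glucose medium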
Please provide measured growth inhibition for the entries that follow.
Give bare numbers, in %.

compound: Cc1noc(C(=O)N2CC3(C)CC2CC(C)(C)C3)c1Cl (stereo not given)
numeric-value: -13.2
--
compound: C=CCn1c(SCC(=O)N2CCOCC2)nc(O)c(Cc2ccccc2)c1=O
numeric-value: -8.77
--
compound: Cn1cccc1Cc1nnc(SCC(=O)Nc2ccc3c(c2)OCO3)n1-c1ccc(F)cc1
numeric-value: 14.1
--
compound: COc1ccc(-c2nc(Cn3c(SCc4cccc(F)c4)nc4ccncc43)c(C)o2)cc1OC
numeric-value: 30.2

Exercise: Write down growth inhibition measured for item Cc1ccc(S(=O)(=O)NC2OC(=O)C(Cl)=C2Cl)cc1 (stereo not given)
Solution: 10.1

----------
Assign viability to each entry below.
test: growth suppression of beta-catenin knockout HCT116, pilot screen, human colon tumor cells (AID 823); conditions: CellTiter-Glo, 60 h, at 10 µM, hits give low values;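 note: 0% = wells killed by 20 µM Hyamine and 100% = untreated DMSO cell wells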
Records with an inconclusive call do not appear.
Answers are plain numbers, in %.

# count of solved cases: 2
compound: c1ccc(Sc2nc(N3CCCCC3)nc(N3CCCCC3)n2)nc1
viability [%]: 89.3
--
compound: CCOCCn1c(CN2CCC(C)CC2)nc2c1c(=O)n(C)c(=O)n2C
viability [%]: 91.8

Proceed to the following item.
Exercise: Name the recorded viability of the compound listed here: COc1ccccc1N1C(=O)C2CC=CC(C)C2C1=O (stereo not drawn)
Solution: 89.4

----------
Please provide measured viability for the entries that follow.
experiment: growth suppression of beta-catenin knockout HCT116, pilot screen, human colon tumor cells (AID 823); conditions: CellTiter-Glo, 60 h, at 10 µM, hits give low values;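 note: 0% = wells killed by 20 µM Hyamine and 100% = untreated DMSO cell wells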
Records with an inconclusive call do not appear.
Answers are plain numbers, in %.

Some molecules with known viability results, for comparison:
molecule: O=C(Oc1ccccc1)c1cccc(N2C(=O)CCC2=O)c1
viability / %: 105
--
molecule: c1ccc2[nH]c(SCCN3CCOCC3)nc2c1
viability / %: 98.9

Batch: viability for all items listed.
1. COc1ccccc1N(C(=O)NCc1ccccc1)C1=NCC(C)S1 (stereo not given)
2. Cc1ccc(-n2ncc3c(NCCCN4CCOCC4)ncnc32)c(C)c1

Solution:
93.4
96.1

Value sought for every listed molecule: viability.
1. Cc1nc2cc(-c3cccc(F)c3)nn2c(C)c1CCC(=O)N1CCN(c2ccccn2)CC1
2. C=CCSc1nnc(CSc2nc3sc4c(c3c(=O)[nH]2)CCCC4)n1-c1ccccc1
3. CCCCOc1ccccc1NC(=O)CC1SC(=NCC)N(CC)C1=O (stereo not given)

Solution:
1. 87.2
2. 93.2
3. 85.6

Record viability for all entries; do not skip any.
1. CCOCN(C(=O)Cn1c(CO)nc2ccccc21)c1c(C)cccc1CC
2. COc1cc(OC)cc(C(=O)OCn2nnc3ccccc3c2=O)c1
3. CC(=O)NCC(=O)N(c1ccccc1)C1(C(=O)NC2CCCCC2)CCCCC1
4. Cn1c(=O)n(C)c2cc(S(=O)(=O)O)ccc21
5. COC(=O)c1ccc2c(c1)N(Cc1nc(-c3cccc(C)c3)oc1C)C(=O)C1CCCN21 (stereo not given)
6. CC(=O)c1cccc(NC2c3ccccc3C(=O)N2Cc2ccc3c(c2)OCO3)c1 (stereo not given)

Solution:
1. 89.4
2. 101
3. 103
4. 97
5. 92
6. 92.7

Give me viability for each of these molecules, listed below.
1. c1ccc(CNc2ncnc3c2ncn3C2CCCCO2)cc1 (stereo not given)
2. CCCC(=O)Nc1nc2ccc(OCC)cc2s1
3. Cc1noc(NS(=O)(=O)c2ccc(NC(=O)CSc3nc4c(cc3C#N)CCC4)cc2)c1C

Solution:
1: 101; 2: 86.8; 3: 107

Each molecule below has a recorded value; state its viability.
1. Cc1c(C(=O)Nc2ccc(F)cc2)oc2ccc(S(=O)(=O)N3CCCC3)cc12
2. C=CCNC(=O)C1CC(=O)N(c2ccc(Br)cc2)C1 (stereo not given)

Solution:
101
95.5

List the reported viability of each molecule below.
1. CCc1c(C)sc(NC(=O)c2cc(C3CC3)on2)c1C#N
2. O=C(NC1CCCCCC1)c1nnc(Cc2ccc(Cl)cc2)o1
3. COC(=O)C1(C)NC(=O)c2ccccc2N1 (stereo not given)
4. N#Cc1ccc(CSCC(=O)O)cc1

Solution:
1: 99; 2: 95.2; 3: 102; 4: 97.4

List viability for every entry below, keeping the order given.
1. CCCC(=O)C1=C(O)C(C(=O)OC)C(C)(C)CC1=Nc1ccncc1 (stereo not given)
2. O=C(CN1CCOc2ccccc21)NC1CCN(Cc2ccccc2)CC1
3. CCCN1CCN(C(=O)Cn2ncc3ccccc32)CC1
4. Cn1c(NC(=O)c2ccc3c(c2)OCO3)cc(=O)n(C)c1=O
5. Cc1ccccc1-c1nnc(SCC(=O)Nc2ccc3c(c2)OCCO3)n1N
6. O=C1c2ccccc2CCC1C(O)c1ccccn1 (stereo not given)

Solution:
96.7
77
100
98.5
96.7
95.5

State the recorded viability for every item in the following list.
1. CSc1cccc(NC(=O)CN(c2ccc(C)cc2C)S(C)(=O)=O)c1
2. Cn1c(=O)oc2cc(S(=O)(=O)N3CCCC(C(=O)NCCN4CCOCC4)C3)ccc21 (stereo not given)
3. CSc1nc2sc3c(c2c(=O)n1C)CCCC3
4. CS(=O)(=O)N(CC(=O)NCc1ccco1)c1ccc(Cl)c(C(F)(F)F)c1
5. CCn1c(SCC(=O)N2CCN(c3ccccc3)CC2)nc2c(c1=O)SC(C)C2 (stereo not given)
6. COc1ccc(OCC(=O)Nc2cccc(C(C)=O)c2)cc1
7. Cn1c(=O)oc2cc(S(=O)(=O)Nc3ccc(Cl)cc3F)ccc21

Solution:
[76.8, 103, 99.9, 92.8, 88.5, 93.9, 105]

----------
assay: growth suppression of PTEN-deleted HCT116, pilot screen, cell-based, HCT116 clonal line, CellTiter-Glo (AID 824); settings: 60 h, at 10 µM, hits give low values;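 note: 0% = 20 µM Hyamine control and 100% = vehicle cell control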
Inconclusive results are not listed.
recorded-endpoint: viability (%)
One number for each entry, in %.

molecule: CCCC(=O)N1CC(=O)Nc2ccc(F)cc2C1c1ccccc1 (centres undefined)
numeric-value: 92.6

Below are some molecules; for each one, tell me its viability.
1. Nc1ccc(SC(F)(F)F)cc1C(=O)c1ccccc1
2. CC1=NC2(CCCc3c2no[n+]3[O-])N(O)C1(C)C (centres undefined)

Solution:
70.4
98.7
